# Run Description: yeast display, Sf9 membrane polyspecificity reagent, FACS + sequencing; frameworks hold sequencing errors

Biosequence	polyreactivity (PSR sort gate)
QVQLVESGGGLVQAGGSLRLSCAASGSTFAPNAMGWYRQAPGKERELVAAISRGGSTYYADSVKGRFTISRDNAKNTVYLQMNSLKPEDTAVYYCAVYKFHYGYVWYPYDYWGQGTQVTVSS	high polyreactivity
QVQLVESGGGLVQAGGSLRLSCAASGFIFGSNAMGWYRQAPGKERELVAAISRSGGSTYYADSVKGRFTISRDNAKNTVYLQMNSLKPEDTAVYYCNVVLWPFVYSWWSYDYWGQGTQVTVSS	high polyreactivity
